- Tested on: Human gammaherpesvirus 8
- assay-notes: Inhibition of KSHV protease at 10 uM by fluorogenic activity assay
measurement-type: inhibition (%)

• O=C(O)c1ccc(NC(=O)c2cncc(CC3CCCCC3)c2)c(Cc2ccccc2)c1 = 7.9
• O=C(O)c1ccc(NC(=O)c2ccc(CC3CCCCC3)nc2)c(Cc2ccccc2)c1 = 10
• COc1ccc(C(=O)Nc2ccc(C(=O)O)cc2Cc2ccccc2)cc1CC1CCCCC1 = 51.1

---

- System: Human gammaherpesvirus 8
- assay-notes: Inhibition of KSHV protease at 10 uM by fluorogenic activity assay
Think of 60% as a floor: if inhibition stands on it or above, it is MET; beneath it, NOT MET.

• O=C(O)c1ccc(NC(=O)c2cccc(CC3CCCCC3)n2)c(Cc2ccccc2)c1 = MET
• O=C(O)c1ccc(NC(=O)c2ccccc2CC2CCCCC2)c(Cc2ccccc2)c1 = NOT MET
• O=C(O)c1ccc(NC(=O)c2ccc(CC3CCCCC3)cc2)c(Cc2ccccc2)c1 = NOT MET
• COC(=O)c1ccc(NC(=O)c2cccc(CC3CCCCC3)c2)c(Cc2ccccc2)c1 = NOT MET
• O=C(O)c1ccc(NC(=O)c2cccc(CC3CCCCC3)c2)c(Cc2ccccc2)c1 = NOT MET
